# assayed target: Phosphotyrosine protein phosphatase (Mycobacterium tuberculosis, UniProt A0A045ISB3)
# Sequence (A0A045ISB3 whole entry): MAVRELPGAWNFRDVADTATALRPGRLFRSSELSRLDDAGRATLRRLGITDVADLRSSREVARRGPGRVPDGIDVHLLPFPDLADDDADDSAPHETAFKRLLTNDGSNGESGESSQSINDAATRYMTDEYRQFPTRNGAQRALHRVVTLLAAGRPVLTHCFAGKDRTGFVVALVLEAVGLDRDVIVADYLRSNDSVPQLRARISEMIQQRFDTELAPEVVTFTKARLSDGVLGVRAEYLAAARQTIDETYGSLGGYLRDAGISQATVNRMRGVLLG
# procedure details: Inhibition of recombinant Mycobacterium tuberculosis PtpB using p-nitrophenyl phosphate as substrate preincubated for 10 mins followed by substrate addition and measured every minute for 10 mins by UV-VIS spectrophotometric analysis

smiles string	assayed target	units of measure	IC50
Cc1ccc(NC(=S)N/N=C/c2ccc(-c3cc(C(F)(F)F)ccc3Cl)o2)cc1	Phosphotyrosine protein phosphatase (Mycobacterium tuberculosis, UniProt A0A045ISB3)	µM	30.3
S=C(N/N=C/c1ccc(-c2ccccc2)cc1)Nc1cccc2ccccc12	Phosphotyrosine protein phosphatase (Mycobacterium tuberculosis, UniProt A0A045ISB3)	µM	17.6
FC(F)(F)c1ccc(Cl)c(-c2ccc(/C=N/NC(=S)Nc3cccc4ccccc34)o2)c1	Phosphotyrosine protein phosphatase (Mycobacterium tuberculosis, UniProt A0A045ISB3)	µM	6.2
O=[N+]([O-])c1ccc(/C=N/NC(=S)Nc2cccc3ccccc23)cc1	Phosphotyrosine protein phosphatase (Mycobacterium tuberculosis, UniProt A0A045ISB3)	µM	18.4
